Measured values drawn from patent US20240101668A1 for this set.

assayed-target: T1, huCLL1-K244-Avi-Tev-His (human, UniProt Q5QGZ9 65-265);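 further: Bio-layer interferometry with scFvs captured on biosensors via anti-V5 antibody, exposed 2 min to CLL-1 K244 or Q244 protein, 5 min dissociation, scored as binding, no binding or ambiguous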
T1 construct: extracellular domain
T1 sequence (looked up): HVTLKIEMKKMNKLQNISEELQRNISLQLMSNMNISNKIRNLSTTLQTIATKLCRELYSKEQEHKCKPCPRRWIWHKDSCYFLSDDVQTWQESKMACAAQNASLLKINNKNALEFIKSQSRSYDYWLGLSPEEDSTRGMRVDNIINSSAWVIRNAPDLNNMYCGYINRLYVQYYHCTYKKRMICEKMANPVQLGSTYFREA
experiment-description: BLI
recorded-endpoint: binding result

| binder | observed |
| --- | --- |
| Polypeptide No. 80 (scFv, V domains shown, scFv) VH: QVQLVQSGAEVKKPGASVKVSCKASGFTFTSYYMHWVRQAPGQGLEWMGWMNPNSGNTGYAQRFQGRVTMTRDTSTSTVYMELSSLRSEDTAVYYCARGHSRTDYGMDVWGQGTTVTVSS VL: DIQMTQSPSSLSASVGDRVTITCRASQSISSWLAWYQQKPGKAPKLLIYDTSSLQSGVPSRFSGSGSGTDFTLTISSLQPEDFATYYCQQGYSTPLTFGQGTKVEIKR | no binding |
| Polypeptide No. 84 (scFv, V domains shown, scFv) VH: QVQLVQSGAEVKKPGASVKVSCKASGGTFSNYAISWVRQAPGQGLEWMGWINPNSGGTNYAQKFQGRVTMTRDTSTSTVYMELSSLRSEDTAVYYCARVGYYDSSGGGMDVWGQGTTVTVSS VL: DIQMTQSPSSLSASVGDRVTITCRASQSISSWLAWYQQKPGKAPKLLIYDASNLETGVPSRFSGSGSGTDFTLTISSLQPEDFATYYCLQTHSFPLTFGPGTKVDIKR | no binding |
| Polypeptide No. 63 (scFv, V domains shown, scFv) VH: QVQLVQSGAEVKKPGASVKVSCKASGYTFTGYYVHWVRQAPGQGLEWMGVINPSGGGSPSYAQKFQGRVTMTRDTSTSTVYMELSSLRSEDTAVYYCARDRSDVDYGMDVWGQGTTVTVSS VL: DIQMTQSPSSLSASVGDRVTITCQASQDISNYLNWYQQKPGKAPKLLIYDASNLQSGVPSRFSGSGSGTDFTLTISSLQPEDFATYYCLQHNSYPLTFGGGTKVEIKR | binds |
